Ref: patent US8022091B2

molecular target: human Edg-1 (S1P1) (Homo sapiens, UniProt P21453); construct: expressed in transfected cells; host or cells: HEK-293; test: S1P1 binding assay: inhibition of [33P]-S1P binding to membrane fraction of HEK-293 cells transferred with the human Edg-1 (S1P1) gene; settings: test compound at 10 μM; inhibition of [33P]-S1P binding to the membrane fraction of HEK-293 cells expressing human Edg-1 (S1P1)
Sequence (P21453 whole entry): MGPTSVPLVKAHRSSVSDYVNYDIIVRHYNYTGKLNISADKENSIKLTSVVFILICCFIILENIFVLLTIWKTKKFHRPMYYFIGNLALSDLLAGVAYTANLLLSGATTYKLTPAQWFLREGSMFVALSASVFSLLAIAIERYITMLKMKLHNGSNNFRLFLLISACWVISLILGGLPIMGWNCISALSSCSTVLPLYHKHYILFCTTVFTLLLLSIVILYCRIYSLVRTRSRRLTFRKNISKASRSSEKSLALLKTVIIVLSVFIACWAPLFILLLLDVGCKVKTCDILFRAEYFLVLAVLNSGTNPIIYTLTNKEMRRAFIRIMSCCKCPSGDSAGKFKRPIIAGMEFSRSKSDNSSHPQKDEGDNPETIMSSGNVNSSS
inhibition at 10 µM listing for selected molecules.
Could you write the number and then its unit?

Worked cases, answers included:
stdin: // inhibition at 10 µM lookup, key: CCn1c(Oc2cccc(N3CCN(C)CC3)c2)nnc1[C@@H](C)NS(=O)(=O)c1cc2ccccc2s1
stdout: 99.4%

stdin: Entry to check: CCn1c(Oc2ccc(F)cc2)nnc1[C@@H](C)NS(=O)(=O)c1cc(Br)ccc1Br
stdout: 78.2%

---
stdin: // inhibition at 10 µM lookup, key: CCn1c(Oc2ccc(F)cc2)nnc1[C@@H](C)NS(=O)(=O)c1cccc(Cl)c1
stdout: 65.1%

stdin: Entry to check: CCn1c(Oc2ccc(F)cc2)nnc1[C@@H](C)NS(=O)(=O)c1ccc(S(C)(=O)=O)cc1
stdout: 55.3%

stdin: Entry to check: C=Cc1ccc(S(=O)(=O)N[C@H](C)c2nnc(Oc3ccc(F)cc3)n2CC)cc1
stdout: 96.9%

stdin: Entry to check: CCn1c(Oc2cccc3ccccc23)nnc1[C@@H](C)NS(=O)(=O)c1ccc(Cl)c(Cl)c1
stdout: 92%

stdin: Entry to check: CCn1c(Oc2ccc(C)nc2)nnc1[C@@H](C)NS(=O)(=O)c1ccc(Cl)c(Cl)c1
stdout: 99.9%

stdin: Entry to check: CCn1c(Oc2ccc(F)cc2)nnc1[C@@H](C)NS(=O)(=O)c1ccc(C)cc1
stdout: 86.8%
